B1: PHTF1 (parent)
chain: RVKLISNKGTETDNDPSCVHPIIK

Variants of: B1
Experiment: protein stability index of a GFP-peptide fusion (GPS, HEK-293T) (PSI 1-6); higher = more stable;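 further: lentivirally expressed fusions sorted by FACS into six bins by GFP to DsRed ratio, PSI derived from sequencing read proportions per bin multiplied by bin number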
Details: c terminus: a fixed tail appended
Readout kind: protein stability index
Enter a number only.

Below: 5 variants and their reported protein stability index.
> print(dat)
   changes             readout.kind  observed.result
1     D15L  protein stability index             3.27
2     H20M  protein stability index             4.22
3      V2S  protein stability index             4.44
4     K24N  protein stability index             4.26
5     D15R  protein stability index             3.45

N14P has a reported protein stability index of 4.3

T10V has a reported protein stability index of 3.38

S17N has a reported protein stability index of 4.01

H20Y has a reported protein stability index of 3.91

I5V has a reported protein stability index of 4

I22G has a reported protein stability index of 4.48

T12Q has a reported protein stability index of 4.18

P21D has a reported protein stability index of 3.95

N14M has a reported protein stability index of 3.6

I22P has a reported protein stability index of 4.67

S17F has a reported protein stability index of 3.12

T12E has a reported protein stability index of 4.53

K8V has a reported protein stability index of 3.88

K3I has a reported protein stability index of 2.81

T10I has a reported protein stability index of 3.74

K8R has a reported protein stability index of 3.95

S17A has a reported protein stability index of 4.42
